# SYSTEM: T1, human IL22R on BW-hIL22R cells (human, UniProt Q8N6P7 16-574)
# T1 sequence (looked up): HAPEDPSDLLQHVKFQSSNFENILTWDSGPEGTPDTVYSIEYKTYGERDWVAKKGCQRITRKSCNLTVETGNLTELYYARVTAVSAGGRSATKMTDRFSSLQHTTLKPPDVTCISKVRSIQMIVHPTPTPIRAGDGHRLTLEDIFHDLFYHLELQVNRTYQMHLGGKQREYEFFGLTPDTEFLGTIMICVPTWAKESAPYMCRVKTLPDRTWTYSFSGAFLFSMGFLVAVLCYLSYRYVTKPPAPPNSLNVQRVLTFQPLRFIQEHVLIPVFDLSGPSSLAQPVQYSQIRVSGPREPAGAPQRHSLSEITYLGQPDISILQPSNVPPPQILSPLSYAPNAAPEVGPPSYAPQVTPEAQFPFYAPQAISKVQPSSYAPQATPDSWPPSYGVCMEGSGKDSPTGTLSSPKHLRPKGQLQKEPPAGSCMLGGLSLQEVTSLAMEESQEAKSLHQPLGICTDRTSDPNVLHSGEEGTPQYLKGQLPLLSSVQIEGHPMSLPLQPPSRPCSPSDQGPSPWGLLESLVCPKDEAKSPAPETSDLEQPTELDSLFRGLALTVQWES
# PROTOCOL_NOTES: cell-based or functional assay
QUANTITY: IC50 pM (potency on human IL22R expressing cells) (pM)
Form entry: value (pM) — number only.

{"columns": ["BINDER", "VALUE"],
 "data": [
  ["197G10 (antibody, V domains shown, Vkappa-shuffled clone of 170B2 (keeps the 170B2 VH-CH1); also called VK_197G10) VH: EVQLVESGGGLVQPGGSLRLSCAASGFTFSSSWMYWVRQAPGKGLEFVSVINTRSGITHYVESVKGRFTISTDNAKNTLFLQMNSLKSEDTAVYYCATRIQGLIDYWGQGTQVTVSS VL: DIQMTQSPSSMSASLGDSVTISCQASENIGTQLFWYQQNAGQPPKLLIYGASRLQTGVPSRFSGSGSGTTFTLTISGVETGDLATYYCLQDYSWPLTFGQGTKVELK", 124]
]}

Field: next binder
Query block: Fill blank: measured IC50 pM (potency on human IL22R expressing cells) of the binder 197D3 (antibody, V domains shown, Vkappa-shuffled clone of 170B2 (keeps the 170B2 VH-CH1); also called VK_197D3) VH: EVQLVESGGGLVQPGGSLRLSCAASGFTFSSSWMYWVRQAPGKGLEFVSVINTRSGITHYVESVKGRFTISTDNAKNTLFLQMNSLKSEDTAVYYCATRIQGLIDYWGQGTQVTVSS VL: DIQMTQSPSSLSASLGDRVTVTCQASQSIRSSLNWYQQKPGQAPKLLIYGASRLRIGVPSRFSGSASGTSFTLTISGVEAEDLATYYCLQEYAWPLTFGQGTKVELK is ____.
Result block: 57

Numbers sourced from patent US20150203840A1.
